- test_target: T1, Human Nectin-4 (human, UniProt Q96NY8 32-349, limits assumed)
- T1 construct: Protein immobilised on the SPR chip; also called target protein
- T1 sequence: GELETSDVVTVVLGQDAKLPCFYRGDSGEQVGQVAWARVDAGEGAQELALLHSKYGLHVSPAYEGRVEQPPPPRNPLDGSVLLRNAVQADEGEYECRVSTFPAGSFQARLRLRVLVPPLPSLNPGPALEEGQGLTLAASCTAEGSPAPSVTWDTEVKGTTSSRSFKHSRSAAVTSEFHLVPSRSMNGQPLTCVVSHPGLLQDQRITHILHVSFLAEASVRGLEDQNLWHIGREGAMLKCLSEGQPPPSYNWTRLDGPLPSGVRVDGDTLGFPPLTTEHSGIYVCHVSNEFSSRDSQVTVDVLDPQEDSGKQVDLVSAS
- experiment_summary: Table 2B (DELFIA or SPR)
pKd: −log10 of the molar value. Bridges are numbered along the chain shown (N, C = ends). Primed or numbered codes have the meaning given here. Where no end group is shown, it is not given here. The star is where a group is joined. Biotin = O=C1N[C@H]2[C@H](CS[C@H]2CCCCC(=O)*)N1; PEG4″ = 4(ethylene glycol)
// values below are reported pKd
result_type: pKd

{"binder": "{Biotin-PEG4″}-CEYDEQFFTALKRLRGADICDYIQASFQYLPGLCIEEILDNLGCS-OH (designed binder, disulfide 1-34, 20-44) [C194]", "data_value": 8.96}
{"binder": "{Biotin-PEG4″}-CEYDEEFFTALARLRGADICYYIQAKFQYLPGDCIEEILDNLGCS (designed binder, disulfide 1-34, 20-44) [C140]", "data_value": 8.96}
{"binder": "{Biotin-PEG4″}-CEYDEEFFTALARLRGGDICQYIQAKFQYLPALCIEEILDNLGCS (designed binder, disulfide 1-34, 20-44) [C153]", "data_value": 9.25}

Numbers sourced from patent US20260151519A1.
